Kindly supply the reported cytotoxicity at 70.5 h values for the records listed here.
experiment: Human HepG2 cell viability assay in 384 well format; format: toxicity, cell-based; set-up: dose 125 nL, time 70.5 hour; concentration not given beside the values; conditions: HepG2 cells, read-out: Inhibition

Completed entries (count: 5):
compound | readout-value
COC(=O)c1sccc1S(=O)(=O)NCCC(O)c1ccoc1 (centres undefined) | -0.756%
N#Cc1ccc(Cl)cc1NCC1CC1 | -5.4%
O=C(CC1CCN(CCc2ccccc2)CC1)N1CCCOCC1 | -1.73%
Cc1ccsc1C(=O)N1CCC(O)(CN2CCc3ccccc3C2)C1 (centres undefined) | -6.62%
FC1(F)CCN(Cc2ccccn2)CC12CCN(c1cnccn1)C2 (centres undefined) | -5.08%

Please look at the items below and tell me cytotoxicity at 70.5 h for each one, in order.
1. CC(C(=O)NCCOc1cccc(Cl)c1)n1cncn1 (centres undefined)
2. O=C(Cc1ccccc1O)Nc1ccc(N2CCCC2)nc1
3. CS(=O)(=O)NCc1nnc2n1CCN(CC1CC1)C2
4. CN(C)c1nccc(CNC(=O)NCc2ccco2)n1
5. COC[C@@]12CCO[C@@H]1CCN(C(=O)Cc1ccccc1F)C2
6. CC(C)c1noc(C(C)N2CCN(Cc3cccnc3)CC2)n1 (centres undefined)
7. CN(CCn1ccnc1-c1ccccn1)S(C)(=O)=O
8. Cc1ccc(N2Cc3nc(=O)[nH]n3C2=O)cc1

1: -9.41%; 2: -10.3%; 3: -6.05%; 4: -8.38%; 5: -10.5%; 6: -5.62%; 7: 11.9%; 8: 6.49%

Okay, here is my list. What is cytotoxicity at 70.5 h for each of these?
1. CNS(=O)(=O)c1ccc(CN2CCCN(Cc3ccncc3)CC2)cc1
2. CCC(C)(C)CC(=O)NC(C)C(=O)Nc1ccc(-n2cncn2)cc1 (centres undefined)

["16.9%", "-81.3%"]

Hello, the source for this data is ChEMBL document CHEMBL3507680, in case you need it.
